experiment: folding stability dG unfold from trypsin proteolysis; higher = more stable
Tag: yes (1) if measured folding stability dG unfold is not below 0.3 kcal/mol, no (0) if it is.

Kindly determine if folding stability dG unfold recorded for SAGGGMTPTITVTVHYPGETVTITLSSIEEALEYLKKQGLPINPTHSDPNTLVIEFPDGRTVTITLSSAGGS [r8_365_JUSTAS] is above or exactly 0.3 kcal/mol.
yes (1)

Could you please find out whether SAGGSAGGSAGGNYVVRIEHNGQPIMEQPFPGSLEDAKDYVKEIAQFFPPDKVKIEVYKFSAGGSAGGSAGG [r7_81_TrROS] has folding stability dG unfold that meets 0.3 kcal/mol or exceeds it?
no (0)

Does the reported folding stability dG unfold for SAGGSAGGSAGGMREIAREIWEEYNNPVTIRIRNPNGKHEPFRFPDDPEDIPGWDIDDITSAGGSAGGSAGG [r7_998_TrROS] fall at or above the 0.3 kcal/mol mark?
no (0)

Given the entry SAHTWEIWFPPGLTPEEIQEKLKEEFPGYEIDVDVERDPEPGWYRIEVTMKDPQQRRRVQKKIREILQESAG [r14_443_TrROS] , answer whether its folding stability dG unfold meets or surpasses 0.3 kcal/mol.
yes (1)

Confirm if folding stability dG unfold reported for the sequence SAAFAIKAIATPPNGKKYEILALDNGEGVLVFIENGSKEIPLEELIKLIENNPELKIEKIEIRPLSEFLSAG [r14_336_TrMRF] is 0.3 kcal/mol or above.
yes (1)
